tested on: Rattus norvegicus; assay: In vivo antihistaminic activity using compound 48/80 induced lethality test in rat after 2 hr of oral administration; assay type: functional
Entries are sorted into classes by ED50 as follows: zone 1 (below 0.3 mg/kg), zone 2 (0.3 mg/kg to below 2 mg/kg), zone 3 (2 mg/kg or more)

Reference set, count: 3
stdin: Please report the category associated with `Fc1ccc(Cn2c(NC3CCN(C/C=C/c4ccccc4)CC3)nc3ccccc32)cc1` , nothing else.
stdout: zone 3

stdin: Which band does `Fc1ccc(Cn2c(NC3CCN(CCNCc4ccccc4)CC3)nc3ccccc32)cc1` fall in?
stdout: zone 3

stdin: Please classify: `O=C(OCc1ccccc1)Oc1ccc(CCN2CCC(Nc3nc4ccccc4n3Cc3ccc(F)cc3)CC2)cc1`
stdout: zone 1

---
stdin: // bin(item) where item = `Fc1ccc(Cn2c(NC3CCN(CCCOc4ccccc4)CC3)nc3ccccc32)cc1`
stdout: zone 2

---

ED50 listing for selected compounds.
test system: Rattus norvegicus; assay: In vivo antihistaminic activity using compound 48/80 induced lethality test in rat after 2 hr of oral administration; type: functional

Solved cases (2 shown):
stdin: Return ED50 (reported value) for this compound: `Cl.Fc1ccc(CCN2CCC(Nc3nc4ccccc4n3Cc3ccc(F)cc3)CC2)cc1`
stdout: > 2.5 mg/kg

stdin: Read the entry `CS(=O)(=O)c1ccc(CCN2CCC(Nc3nc4ccccc4n3Cc3ccc(F)cc3)CC2)cc1` and write its reported ED50.
stdout: > 2.5 mg/kg

Now consider a different compound.
stdin: Indicate the recorded ED50 value for this compound: `CN1CCC(Nc2nc3ccccc3n2Cc2ccc(F)cc2)CC1`
stdout: 2.5 mg/kg

---

tested on: Rattus norvegicus; assay: In vivo antihistaminic activity using compound 48/80 induced lethality test in rat after 2 hr of oral administration; assay type: functional
Attribute: ED50
Please reply with the bare figure in mg/kg and do not write the unit itself.

Take a look at these entries with their results.
stdin: Fill in reported ED50 for this entry: Oc1ccc(CCN2CCC(Nc3nc4ccccc4n3Cc3ccc(F)cc3)CC2)cc1 [DESMETHEYLASTEMIZOLE]
stdout: 0.1

stdin: Supply recorded ED50 for `CSc1ccc(CCN2CCC(Nc3nc4ccccc4n3Cc3ccc(F)cc3)CC2)cc1` here.
stdout: 1.25

stdin: // fetch ED50 given entry COc1ccc(CCN2CCC(Nc3nc4ccccc4n3Cc3ccc(F)cc3)CC2)cc1 [ASTEMIZOLE]
stdout: 0.11

stdin: Supply measured ED50 of COc1ccc(OCC(O)CN2CCC(Nc3nc4ccccc4n3Cc3ccc(F)cc3)CC2)cc1 (stereo unspecified) in your reply.
stdout: 2.5

stdin: Dear colleague, please send me the reported ED50 for CN1CCC(=C2c3ccccc3CCc3cccnc32)CC1 [AZATADINE] when you can.
stdout: 0.48

stdin: Give ED50 for the following compound: `NC(=O)COc1ccc(CCN2CCC(Nc3nc4ccccc4n3Cc3ccc(F)cc3)CC2)cc1`
stdout: 2.5

Next:
stdin: Return the recorded ED50 value; entry: `CCOc1ccc(CCN2CCC(Nc3nc4ccccc4n3Cc3ccc(F)cc3)CC2)cc1`
stdout: 0.16

stdin: Please list ED50 recorded for the compound `COc1ccc(CCN2CCC(Nc3nc4ccccc4n3Cc3ccc(F)cc3)CC2)c(OC)c1.Cl`
stdout: 0.31

stdin: Please give measured ED50 of the following entry: `Cl.N#CCOc1ccc(CCN2CCC(Nc3nc4ccccc4n3Cc3ccc(F)cc3)CC2)cc1`
stdout: 0.08

stdin: Answer with the recorded ED50 for the compound listed here: `O=C(OCCN1CCC(Nc2nc3ccccc3n2Cc2ccc(F)cc2)CC1)N1CCOCC1`
stdout: 2.5

stdin: Look up and state reported ED50 for `CCNC(=O)COc1ccc(CCN2CCC(Nc3nc4ccccc4n3Cc3ccc(F)cc3)CC2)cc1`
stdout: 2.5

stdin: Please look at this compound and report its ED50: CC(CN1CCC(Nc2nc3ccccc3n2Cc2ccc(F)cc2)CC1)c1ccccc1 (stereo unspecified)
stdout: 2.5

stdin: Supply recorded ED50 for `O=C(NCCN1CCC(Nc2nc3ccccc3n2Cc2ccc(F)cc2)CC1)c1ccc(F)cc1` here.
stdout: 2.5

stdin: Note down ED50 recorded for COc1cccc(OC)c1OCC(O)CN1CCC(Nc2nc3ccccc3n2Cc2ccc(F)cc2)CC1 (stereo unspecified)
stdout: 1.25

stdin: Report measured ED50; entry is `Cc1cc(CCN2CCC(Nc3nc4ccccc4n3Cc3ccc(F)cc3)CC2)ccc1O.Cl`
stdout: 0.16

stdin: Identify the reported ED50 for the following entry. `COc1ccccc1CCN1CCC(Nc2nc3ccccc3n2Cc2ccc(F)cc2)CC1`
stdout: 0.63
